Values compiled from PubChem BioAssay.

# ASSAY_COMMENT: compound binding in COS7 lysate, probe aLAP1, primary screen, cell lysate, small-molecule microarray (AID 1124);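 note: lysate comes from COS7 cells expressing LAP1 and is applied at 0.3 µg/mL; score merges spot fluorescence near 667 nm with signal-to-noise over triplicate slides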
# STUDY_CONDITIONS: probe aLAP1, fluorescence, higher = more signal
Catalogue of composite z-score values
Keep it simple and answer with nothing but the number.

Example entries and their recorded answers appear below.
COMPOUND	composite z-score
C=CCN1C(=O)[C@@]2(O[C@@H](CCO)[C@H]([Si](C)(C)c3ccc(OC)cc3)[C@H]2C)c2cc(N3C(=O)c4cccc5cccc3c45)ccc21	1.13
COC(=O)[C@@]1(CCC(=O)OC(C)(C)C)COC(c2ccc(OCCCO)cc2)=N1	0.993
C=CCC(OC(C)=O)[C@@H]1[C@@H](N(Cc2cc3ccccc3o2)C(=O)c2ccc(-c3ccccc3)cc2)c2cc(OCCCO)ccc2N1C(=O)c1ccc(-c2ccccc2)cc1 (some centres undefined)	0.0482
C=C(C(=O)CC[C@H](OC(C)=O)c1ccc(CO)o1)C(C)C	0.629
Cc1ccc(N2C(=O)c3ccccc3[C@](C)(C(=O)NCC(F)(F)F)[C@@H]2c2ccc(CO)cc2)nc1	0.0759

Prompt: Which measured composite z-score value corresponds to `COc1ccc([Si](C)(C)[C@@H]2[C@@H](CC(=O)N3CCC[C@H]3CO)O[C@]3(C(=O)N(Cc4ccc(I)cc4)c4ccccc43)[C@H]2C)cc1` ?
Completion: 0.147

Prompt: Which measured composite z-score value corresponds to `CC(C)(C)OC(=O)CC[C@@]12N=C(c3ccc(OCCCO)cc3)O[C@@H]1c1ccccc1CN(Cc1ccccc1)C2=O` ?
Completion: -0.0961

* * *

# ASSAY_COMMENT: modulators of S6 phosphorylation in cells, primary screen, cell-based, A549, cytoblot, luminescence, serum-stimulated (AID 1158);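 note: serum-stimulated A549 lung adenocarcinoma cells; signal is phosphorylated S6 detected by cytoblot immunostaining with HRP secondary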
# STUDY_CONDITIONS: A549 phospho-S6 cytoblot, 5 h, higher = more signal
ASSAY_ENDPOINT: z-score
Keep it simple and answer with nothing but the number.

Example entries and their recorded answers appear below.
> print(dat)
                                   molecule  measured.value
1  CC(C)C[C@@H]1NC(=O)[C@H]2C[C@@H](C(=O)NCCCC[N+](C)(C)C)[C@@H](c3cccc(OCCO)c3)N2C1=O           0.251
2  CC(=O)NCCCC[C@@H]1NC(=O)[C@@H]2C[C@H](C(=O)O)[C@H](c3cccc(OCCO)c3)N2C1=O           0.264
3  CC(C)CCC[C@@H](C)[C@H]1CC[C@@]2(C)C3=C(CC[C@]12C)[C@@]1(C)CC[C@H](OC(=O)CCl)C(C)(C)C1CC3 (stereo partly drawn)           0.413
4  C=C[C@H](OC)[C@@H](OC(=O)Nc1ccc(OC)cc1)c1ccc(OC)c(O)c1          -0.443
5  C=C(COC)/C(=C/C[C@H](OC(C)=O)c1ccc(CO)o1)c1cnc2ccccc2c1          -0.198

Prompt: Which measured z-score value corresponds to CC(C)N1CC=CC23O[C@@H]4/C=C\CCCOC(=O)C4[C@H]2C(=O)N(CCCO)[C@@H]3C1=O (stereo partly drawn) ?
Completion: -0.108

Prompt: Which measured z-score value corresponds to `[N-]=[N+]=Nc1ccccc1[C@H]1OC(c2ccc(OCCCO)cc2)=N[C@@]1(Cc1ccccc1)C(N)=O` ?
Completion: 1.8

Prompt: Which measured z-score value corresponds to CCN(CC)c1ccc(N2CC=CC34O[C@@H]5C=CCOC(=O)[C@@H]5[C@H]3C(=O)N(C(CO)C(C)C)[C@@H]4C2=O)cc1 (stereo partly drawn) ?
Completion: -0.369
